Origin of values: ChEMBL document CHEMBL1909294

Test system: Hepatotoxicity; also: call rule not given here
Details: Liver
Measured HepSE_hepatitis by item
Number, no unit, nothing else.

Recorded HepSE_hepatitis, per entry:
>>> assay_value("CC(C)NCC(O)COc1ccc(CC(N)=O)cc1 (centres undefined)")
0
>>> assay_value("O=C1NC(=O)C(c2ccccc2)(c2ccccc2)N1")
1
>>> assay_value("O=C1CN(/N=C/c2ccc([N+](=O)[O-])o2)C(=O)N1")
1
>>> assay_value("[H]/N=C(/N)N[C@H]1[C@H](O)[C@@H](O)[C@H](O[C@@H]2O[C@@H](C)[C@](O)(C=O)[C@H]2O[C@@H]2O[C@@H](CO)[C@H](O)[C@@H](O)[C@@H]2NC)[C@@H](N/C(N)=N\\[H])[C@@H]1O")
0

**Query** Request: HepSE_hepatitis, test system Hepatotoxicity, entry `CC(C)(C(=O)c1cccnc1)c1cccnc1`; also: call rule not given here
**Result** 0

**Query** What HepSE_hepatitis appears in the records for this molecule with Hepatotoxicity? `O=P(O)(O)O`
**Result** 0

**Query** # query: HepSE_hepatitis | item `CC(C)c1cccc(C(C)C)c1O` | system: Hepatotoxicity;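 also: Hepatitis-related hepatic side effect score taken from the training data of DILIps, a prediction system for drug-induced liver injury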; also: call rule not given here
**Result** 0

**Query** Missing value: HepSE_hepatitis, Hepatotoxicity, entry Sc1ncnc2nc[nH]c12 [MERCAPTOPURINE ANHYDROUS] . Fill in?
**Result** 0

**Query** Give Hepatotoxicity HepSE_hepatitis for CC1=C(C(=O)O)N2C(=O)[C@@H](NC(=O)[C@H](N)c3ccccc3)[C@H]2SC1 [CEPHALEXIN ANHYDROUS]
**Result** 1
